test: in vitro; details: PAMPA
Kindly apply the following: rule met if Papp is less than 70 ×10⁻⁶ cm/s, rule not met in every other case.

# smiles-representation, group-label
records = [
    ("COc1ccc(NC(=O)c2cc(Cl)ccc2O)cc1", "rule not met"),
    ("N#Cc1ccc(NC(=O)c2cccc3cc[nH]c23)c(Cl)c1", "rule not met"),
    ("N#Cc1ccc(NC(=O)c2cc(Cl)ccc2O)c(Cl)c1", "rule met"),
    ("O=C(Nc1c(F)cccc1F)c1cc(Cl)ccc1O", "rule met"),
    ("O=C(Nc1ccc(Cl)cc1Cl)c1cc(Cl)ccc1O", "rule met"),
    ("O=C(Nc1ccc([N+](=O)[O-])cc1Cl)c1cc(Br)ccc1O", "rule met"),
    ("O=C(Nc1ccc([N+](=O)[O-])cc1Cl)c1cc(-c2ccc(F)cc2F)ccc1O", "rule met"),
    ("O=C(Nc1c(Cl)cc(F)cc1Cl)c1cc(Cl)ccc1O", "rule met"),
    ("Nc1ccc(NC(=O)c2cc(Cl)ccc2O)c(Cl)c1", "rule not met"),
    ("O=C(Nc1c(Cl)cccc1Cl)c1cc(Cl)ccc1O", "rule not met"),
    ("CC(C)c1cnc(NC(=O)c2cc(Cl)ccc2O)s1", "rule not met"),
    ("CN1CCC(NC(=O)c2cc(Cl)ccc2O)CC1", "rule not met"),
]

* * *

# Lookup of reported half-life keyed by entry
test: in vitro; settings: rat, liver microsomes

# smiles-representation, value-relation-sign, half-life / min
records = [
    ("O=C(Nc1c(Cl)cccc1Cl)c1cc(Cl)ccc1O", "=", 24),
    ("O=C(Nc1ccc([N+](=O)[O-])c2ccccc12)c1cc(Cl)ccc1O", "=", 10.7),
    ("N#Cc1ccc(NC(=O)c2cc(Cl)ccc2O)c(Cl)c1", ">", 30),
    ("O=C(Nc1ccc([N+](=O)[O-])cc1Cl)c1cc(Br)ccc1O", ">", 30),
    ("O=C(Nc1ccc(C(F)(F)F)cc1)c1cc(Cl)ccc1O", ">", 30),
    ("COc1cc([N+](=O)[O-])ccc1NC(=O)c1cc(Br)ccc1O", ">", 30),
    ("O=C(Nc1ccc([N+](=O)[O-])c(Cl)c1)c1cc(Br)ccc1O", "=", 20.3),
    ("O=C(Nc1ccc([N+](=O)[O-])cc1Cl)c1ccc2ccccc2c1O", "=", 16.6),
    ("COc1cc([N+](=O)[O-])ccc1NC(=O)c1cc(Cl)ccc1O", ">", 30),
    ("Cc1cccc(NC(=O)c2cc(Cl)ccc2O)c1C", "=", 9.4),
    ("N#Cc1ccc(NC(=O)c2ccc3ccccc3c2O)c(Cl)c1", "=", 27),
]

* * *

test: in vitro; conditions: rat, microsomes

# compound, half-life
measured = [
    ("O=C(Nc1ccc([N+](=O)[O-])cc1Cl)c1cc(Cl)ccc1O [NICLOSAMIDE]", "> 30 min"),
]

* * *

experiment: in vitro; conditions: rat, liver microsomes
measured-attribute: log10 half-life (log10 of the value in min)

# smiles-representation, test-result
data = [
    ("O=C(Nc1ccccc1C(F)(F)F)c1cc(Cl)ccc1O", 1.18),
    ("O=C(Nc1ccc([N+](=O)[O-])c(Cl)c1)c1cc(Cl)ccc1O", 0.58),
    ("COc1ccc(O)c(C(=O)Nc2ccc([N+](=O)[O-])cc2Cl)c1", 1.25),
    ("O=C(Nc1c(Cl)cc(F)cc1Cl)c1cc(Cl)ccc1O", 1.11),
    ("Nc1cccc(Cl)c1C(=O)Nc1ccc([N+](=O)[O-])cc1Cl", 0.34),
    ("Nc1ccc(NC(=O)c2cc(Cl)ccc2O)c(Cl)c1", 1.48),
    ("O=C(Nc1ccc([N+](=O)[O-])cc1Cl)c1ccc(Cl)cc1O", 1.33),
    ("O=C(Nc1ncc([N+](=O)[O-])s1)c1cc(Cl)ccc1O", 0.48),
    ("O=C(Nc1ccc(F)cc1F)c1cc(Cl)ccc1O", 1.26),
    ("O=C(Nc1ccc(Cl)cc1)c1cc(Cl)ccc1O", 1.15),
    ("COc1ccc(NC(=O)c2cc(Cl)ccc2O)cc1", 0.52),
    ("O=C(Nc1c(Cl)cc([N+](=O)[O-])cc1Cl)c1cc(Cl)ccc1O", 1.30),
    ("O=C(Nc1ccc(F)cc1Cl)c1cc(Cl)ccc1O", 1.29),
]
